# STUDY SYSTEM: human ether-à-go-go-related gene (hERG) potassium channel (human, UniProt Q12809);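 note: peak tail current of the secondary pulse compared with the same well before compound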
# Sequence (Q12809 whole entry, looked up): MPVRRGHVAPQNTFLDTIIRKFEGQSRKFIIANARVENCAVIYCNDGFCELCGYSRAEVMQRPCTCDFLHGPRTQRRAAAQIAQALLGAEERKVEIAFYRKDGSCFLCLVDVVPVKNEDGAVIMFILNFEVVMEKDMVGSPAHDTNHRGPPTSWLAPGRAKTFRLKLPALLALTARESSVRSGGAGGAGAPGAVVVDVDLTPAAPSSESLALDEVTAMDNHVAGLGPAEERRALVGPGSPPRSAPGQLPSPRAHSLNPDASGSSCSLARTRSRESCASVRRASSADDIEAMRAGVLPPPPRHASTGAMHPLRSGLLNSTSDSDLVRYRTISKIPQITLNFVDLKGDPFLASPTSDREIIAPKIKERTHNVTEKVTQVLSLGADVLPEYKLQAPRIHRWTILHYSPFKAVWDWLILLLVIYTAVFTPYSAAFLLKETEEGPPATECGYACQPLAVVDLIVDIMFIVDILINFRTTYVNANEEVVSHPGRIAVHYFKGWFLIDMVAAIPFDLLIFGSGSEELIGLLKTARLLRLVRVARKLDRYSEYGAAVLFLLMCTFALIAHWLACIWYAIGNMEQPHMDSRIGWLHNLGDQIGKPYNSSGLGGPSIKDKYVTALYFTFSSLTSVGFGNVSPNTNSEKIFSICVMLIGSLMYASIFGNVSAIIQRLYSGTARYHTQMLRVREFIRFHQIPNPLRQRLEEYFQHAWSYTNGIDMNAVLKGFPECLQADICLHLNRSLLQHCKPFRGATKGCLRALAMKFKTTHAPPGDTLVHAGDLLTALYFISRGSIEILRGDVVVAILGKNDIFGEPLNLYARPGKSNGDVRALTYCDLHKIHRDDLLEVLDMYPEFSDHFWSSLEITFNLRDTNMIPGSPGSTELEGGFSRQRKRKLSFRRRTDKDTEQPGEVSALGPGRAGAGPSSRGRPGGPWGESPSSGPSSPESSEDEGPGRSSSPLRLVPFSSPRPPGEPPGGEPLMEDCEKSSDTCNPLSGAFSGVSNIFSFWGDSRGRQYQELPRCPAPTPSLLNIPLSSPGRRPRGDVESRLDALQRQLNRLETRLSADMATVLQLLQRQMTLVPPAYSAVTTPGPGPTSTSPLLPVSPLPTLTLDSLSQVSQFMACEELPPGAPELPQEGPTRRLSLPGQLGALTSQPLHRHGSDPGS
# EXPERIMENT NOTES: primary screen, population patch clamp on CHO cells stably expressing hERG; higher = less effect of the substance
# Protocol: Briefly, Chinese hamster ovary (CHO) cells stably expressing the hERG channel were dislodged from tissue culture flasks and dispensed into PPC plates. […] During the recording, background leak currents were estimated by a 100 ms step to -80 mV from an initial holding potential of -70 mV and subtracted from the subsequent current measurement. The campaign was conducted in two phases using slight differences in recording protocol. […]
About 14,000 (4.5%) of roughly 310,000 compounds showed an effect of 50% or more. Effects have a minus sign here. The entries come from a sample that favours strong results as a whole.
OBSERVATION TYPE: hERG current change (%, negative = inhibition) at 10uM (%)
// note: answer is a bare numeric in %

The cases that follow already have their hERG current change (%, negative = inhibition) at 10uM on record.
COc1ccc(CCCC(=O)N/N=C\c2cccs2)cc1: 27.2
O=C(CN1CCN(S(=O)(=O)c2ccc(F)cc2)CC1)c1ccc(O)c(O)c1: -34.9
Cc1cc(C(=O)O)c(S(C)(=O)=O)s1: -1.18
O=[N+]([O-])c1cccc(S(=O)(=O)Nc2ccc(S(=O)(=O)Nc3nccs3)cc2)c1: 13.9
O=C(NNS(=O)(=O)c1cccc(Cl)c1)c1cc(-c2ccc(F)cc2)nc2ccccc12: 11.6
O=C(Nc1ccccn1)C1CCN(C(=O)c2ccc(F)cc2)CC1: 3.81

What value of hERG current change (%, negative = inhibition) at 10uM has been reported for the following compound? Fc1cccc(F)c1CN1CCN(c2ncccn2)CC1
15.5

Entry O=C(O)CCN1C(=O)CC(N2C(=O)/C(=C/c3ccc(Cl)cc3)SC2=S)C1=O (stereo not shown) please
18.8

Please answer likewise for Nn1c(Cc2ccccc2F)nnc1SCCOc1ccc(Cl)cc1
-14.1

Next compound: O=C(c1ccc(-c2ccccc2Cl)o1)N1CCN(S(=O)(=O)c2cccs2)CC1
15.9
